System: M14 melanoma
Experiment: NCI tumour cell line growth inhibition, 48 h

molecule	TGI
C[N+](C)(C)CC(=O)N/N=C(\CCC(=O)NCCc1ccccc1)CC(=O)c1ccccc1	> 100 µM
COc1ccccc1-c1cc(/C=C2\C(=O)Nc3ncc(Br)cc32)cc(Br)c1O	> 25 µM
CCCCC(C(=O)N/N=C/c1ccc([N+](=O)[O-])o1)C(=O)N/N=C/c1ccc([N+](=O)[O-])o1	13.6 µM
COc1ccc(/C=N/n2c(=O)[nH]c3ccccc3c2=O)cc1	> 100 µM
CNC1C(O)C(NC)C2OC3(O)C(=O)CC(C)OC3OC2C1O (configuration not stated)	> 100 µM
Nc1ccc(Oc2ccc(C3(c4ccc(Oc5ccc(N)cc5)cc4)C4CC5C6CC7CC5C3C(C7)C6C4)cc2)cc1	> 100 µM
Cc1ncc(C(=O)Nc2ccc(CN3CCN(C)CC3)c(C(F)(F)F)c2)cc1C#Cc1cnc(N)c2cnccc12	0.17 µM
C1=Nc2ccc(cc2)N=Cc2ccccc2OCc2cccc(n2)COc2ccccc21	> 100 µM
N#CC1(C#N)NC(c2cccnc2)C(C#N)(C#N)NC1c1cccnc1 (configuration not stated)	> 100 µM
COc1ccc2oc(=Nc3ccccc3)c(C(N)=O)cc2c1	> 100 µM
COc1ccc2c(c1O)C(=O)C(CCC(=O)O)CC2 (configuration not stated)	> 100 µM
CC1(C)C(C#N)=[N+]([O-])C(C)(C)N1O	> 100 µM
COc1ccc(N=Nc2c(C)c(C#N)c(=S)n(C3OC(COC(C)=O)C(OC(C)=O)C(OC(C)=O)C3OC(C)=O)c2C)cc1 (configuration not stated)	> 100 µM
N=C(N)/N=C(\N)c1c(-c2cc(O)ccc2O)nc2sccn12	37.9 µM
O=C(Nc1ccc(Cl)cc1)NS(=O)(=O)c1coc2ccccc2c1=O	> 10 µM
C=C1C(=O)OC2/C=C(\C)C3OC3/C=C(/C(=O)OC)C(O)C(OC(=O)C3(C)OC3C)C12 (configuration not stated)	4.7 µM
CCOC(=O)C1(C#N)C(c2ccccc2)CC(O)(c2ccc([N+](=O)[O-])cc2)C(C(=O)c2ccc([N+](=O)[O-])cc2)C1c1ccccc1 (configuration not stated)	> 100 µM

====

Tested on: RPMI-8226 leukemia
Assay: NCI tumour cell line growth inhibition, 48 h
recorded endpoint: TGI

>>> print(df.to_string())
                                    molecule  reported_result
 0  CC1=CC(=O)CC(C)(C)C1(O)/C=C/C(C)=C/C(=O)O (stereo unspecified)         > 100 µM
 1  CC(=O)NC(CCCCN(Cc1ccccc1)C(=O)NCCCl)C(=O)NCc1ccccc1 (stereo unspecified)         > 100 µM
 2  CC(=O)[O-].CC(=O)[O-].O=C(N/N=C/c1cc(Cl)cc(Cl)c1O)c1ccncc1.[Ni+2]         > 100 µM
 3      C=CCc1c(C)nc(C)nc1N/N=C/C=C/c1ccccc1          74.9 µM
 4  O=C(Nc1ccc(Cl)cc1)NS(=O)(=O)c1coc2ccccc2c1=O          > 10 µM
 5  CNC1C(O)C(NC)C2OC3(O)C(=O)CC(C)OC3OC2C1O (stereo unspecified)         > 100 µM
 6  C/C1=C/C(=O)O[C@@H]2C[C@@H](CC[C@H](C)/C=C\C=C\CC1)O[C@@](O)([C@@H]1CSC(=O)N1CO)C2          23.1 µM
 7   NC(=NCCCC1(c2ccccc2)CCCC1)Nc1ccc(Cl)cc1          4.08 µM
 8  C[C@H]1CC[C@H]([C@@H](C)[C@H]2[C@@H](O)C[C@H]3[C@@H]4CC[C@H]5C[C@@H](O)CC[C@]5(C)[C@H]4CC[C@]23C)NC1          30.7 µM
 9  Cc1nc2ccccn2c1NC(=O)NNC(=S)Nc1ccc(Br)cc1         > 100 µM
10      Cc1ccccc1[P+](C)(c1ccccc1C)c1ccccc1C          3.96 µM
11             C=C(C)CNC(=S)N(N)c1ccc(OC)cc1         > 100 µM
12  N#CC(/C(=N\NC(=O)c1ccncc1)C(=O)Nc1ccc([N+](=O)[O-])cc1[N+](=O)[O-])c1nc(-c2ccc(Br)cc2)cs1 (stereo unspecified)         > 100 µM
13  CC1(C)O[C@H]([C@H](O)c2nnc3ccc(Cl)nn23)[C@@H]([C@H]2COC(C)(C)O2)O1         > 100 µM
14  CC(C)C1C(=O)NC(CO)Cc2c[nH]c3c(C(c4c[nH]c5ccccc45)C(O)CO)ccc(c23)N1C (stereo unspecified)         > 100 µM
15  COC(=O)C(Cc1ccccc1)NC(=O)C(CCC(=O)OCc1ccccc1)NC(=O)OC(C)(C)C (stereo unspecified)         > 100 µM
16       Cc1n[n+](CC(=O)c2ccccc2)c2sc(N)nn12         > 100 µM
17                       C=CCCCn1ccc2ccccc21         > 100 µM
18  CC(C)(Br)C(Br)CCC(=CCBr)CBr (mixture of isomers)          4.83 µM
19                       CS/C(C#N)=C(\C#N)SC         > 100 µM
20  COCc1c(CO)cnc(C)c1OC1OC(CO)C(O)C(O)C1O (stereo unspecified)         > 100 µM
